target: HDAC5 (Homo sapiens (Human), UniProt Q9UQL6)
Sequence (Q9UQL6 whole entry): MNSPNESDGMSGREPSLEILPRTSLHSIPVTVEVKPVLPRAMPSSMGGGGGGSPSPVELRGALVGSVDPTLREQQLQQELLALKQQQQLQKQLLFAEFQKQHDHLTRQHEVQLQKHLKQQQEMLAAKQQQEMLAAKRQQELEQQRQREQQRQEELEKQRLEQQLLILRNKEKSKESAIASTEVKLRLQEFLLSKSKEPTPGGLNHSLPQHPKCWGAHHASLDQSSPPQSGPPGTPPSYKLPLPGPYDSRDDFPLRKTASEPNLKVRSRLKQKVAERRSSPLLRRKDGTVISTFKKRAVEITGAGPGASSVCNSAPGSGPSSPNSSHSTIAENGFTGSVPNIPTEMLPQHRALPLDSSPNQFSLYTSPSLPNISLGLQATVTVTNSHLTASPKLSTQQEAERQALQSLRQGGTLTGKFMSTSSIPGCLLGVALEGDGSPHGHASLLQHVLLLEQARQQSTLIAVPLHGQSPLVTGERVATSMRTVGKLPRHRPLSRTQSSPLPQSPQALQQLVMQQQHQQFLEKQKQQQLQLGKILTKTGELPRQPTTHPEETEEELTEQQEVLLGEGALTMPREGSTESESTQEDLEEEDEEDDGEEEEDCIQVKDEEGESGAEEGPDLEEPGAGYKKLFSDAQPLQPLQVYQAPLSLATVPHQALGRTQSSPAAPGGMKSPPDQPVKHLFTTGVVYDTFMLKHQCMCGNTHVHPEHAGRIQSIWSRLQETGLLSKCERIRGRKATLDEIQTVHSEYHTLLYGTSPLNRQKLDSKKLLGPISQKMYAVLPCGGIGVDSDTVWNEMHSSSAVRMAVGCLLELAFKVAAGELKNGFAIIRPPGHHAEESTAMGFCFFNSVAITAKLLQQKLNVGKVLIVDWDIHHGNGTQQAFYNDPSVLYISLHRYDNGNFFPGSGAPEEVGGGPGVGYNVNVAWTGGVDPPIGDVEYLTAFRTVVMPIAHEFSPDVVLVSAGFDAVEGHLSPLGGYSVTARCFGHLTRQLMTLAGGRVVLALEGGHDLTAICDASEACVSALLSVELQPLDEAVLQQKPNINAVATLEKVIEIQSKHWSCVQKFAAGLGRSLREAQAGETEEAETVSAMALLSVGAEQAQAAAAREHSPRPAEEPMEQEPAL
assayMethodText: biochemical
measurementContext: mean of two experiments; read-out: HDAC5 IC50 (μM) ± SD
endpoint: IC50 (µM)
# value in µM; strip the unit string

Req: Give the measured IC50 of `O=C(CCCCCCC(=O)Nc1ccc([C@H]2O[C@@H](CSc3nc(-c4ccccc4)c(-c4ccccc4)o3)C[C@@H](c3ccc(CO)cc3)O2)cc1)NO` .
Resp: 3.35

----------
target: HDAC2 (Homo sapiens (Human))
Sequence (Q92769 whole entry): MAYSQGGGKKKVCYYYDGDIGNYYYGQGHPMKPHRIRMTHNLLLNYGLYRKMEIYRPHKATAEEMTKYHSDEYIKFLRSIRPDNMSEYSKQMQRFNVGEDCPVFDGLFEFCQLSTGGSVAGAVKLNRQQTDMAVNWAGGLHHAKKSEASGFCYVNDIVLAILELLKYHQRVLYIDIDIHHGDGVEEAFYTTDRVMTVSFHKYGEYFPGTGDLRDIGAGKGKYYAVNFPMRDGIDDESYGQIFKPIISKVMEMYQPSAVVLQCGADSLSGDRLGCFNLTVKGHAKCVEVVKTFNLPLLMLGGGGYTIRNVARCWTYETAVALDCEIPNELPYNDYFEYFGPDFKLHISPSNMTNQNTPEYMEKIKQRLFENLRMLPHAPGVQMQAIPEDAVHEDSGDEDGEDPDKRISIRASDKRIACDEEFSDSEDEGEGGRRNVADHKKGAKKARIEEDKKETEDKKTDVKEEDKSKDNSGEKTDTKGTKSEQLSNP
assayMethodText: biochemical
endpoint: pIC50
In textbook form, pIC50 equals minus log to base ten of the concentration in mol/L.

Req: Any idea what pIC50 came out for `O=C(CCCCCCC(=O)Nc1ccc([C@H]2O[C@@H](CSc3nc(-c4ccccc4)c(-c4ccccc4)o3)C[C@@H](c3ccc(CO)cc3)O2)cc1)NO` on HDAC2 (Homo sapiens (Human))?
Resp: 5.20

----------
target: Human HDAC6 (Homo sapiens (Human))
Sequence (Q9UBN7 whole entry): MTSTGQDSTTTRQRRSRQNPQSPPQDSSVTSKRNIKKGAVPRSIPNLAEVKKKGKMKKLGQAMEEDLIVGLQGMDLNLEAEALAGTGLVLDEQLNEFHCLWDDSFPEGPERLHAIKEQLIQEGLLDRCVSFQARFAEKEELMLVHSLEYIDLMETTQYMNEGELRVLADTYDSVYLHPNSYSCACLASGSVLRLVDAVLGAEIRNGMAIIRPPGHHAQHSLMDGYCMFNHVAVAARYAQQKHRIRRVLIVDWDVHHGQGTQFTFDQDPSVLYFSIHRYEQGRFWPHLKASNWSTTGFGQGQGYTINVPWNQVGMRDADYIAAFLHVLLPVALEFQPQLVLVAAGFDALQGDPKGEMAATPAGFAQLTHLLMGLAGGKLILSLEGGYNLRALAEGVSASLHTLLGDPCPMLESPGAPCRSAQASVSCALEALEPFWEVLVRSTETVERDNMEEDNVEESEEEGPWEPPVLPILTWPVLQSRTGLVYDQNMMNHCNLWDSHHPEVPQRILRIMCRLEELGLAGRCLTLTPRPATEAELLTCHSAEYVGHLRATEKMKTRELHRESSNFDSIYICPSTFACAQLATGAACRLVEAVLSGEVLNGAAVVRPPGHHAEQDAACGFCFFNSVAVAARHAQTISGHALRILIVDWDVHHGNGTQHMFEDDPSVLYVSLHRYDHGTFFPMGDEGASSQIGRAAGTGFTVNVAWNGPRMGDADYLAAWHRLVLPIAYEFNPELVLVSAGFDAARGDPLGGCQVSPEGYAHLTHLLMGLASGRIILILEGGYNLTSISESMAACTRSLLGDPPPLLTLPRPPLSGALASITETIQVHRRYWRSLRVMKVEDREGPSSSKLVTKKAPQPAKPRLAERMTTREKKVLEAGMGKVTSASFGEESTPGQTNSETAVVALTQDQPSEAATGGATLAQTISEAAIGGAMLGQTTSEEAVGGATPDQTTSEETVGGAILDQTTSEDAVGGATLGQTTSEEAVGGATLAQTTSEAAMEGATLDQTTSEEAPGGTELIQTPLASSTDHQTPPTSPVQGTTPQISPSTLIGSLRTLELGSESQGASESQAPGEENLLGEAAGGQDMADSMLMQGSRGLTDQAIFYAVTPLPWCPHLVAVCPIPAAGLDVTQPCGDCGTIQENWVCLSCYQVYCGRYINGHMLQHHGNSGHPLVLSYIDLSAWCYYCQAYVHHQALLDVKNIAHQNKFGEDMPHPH
assayMethodText: HDAC6 inhibition assay (fluorogenic p53 peptide substrate)
Format: biochemical
measurementContext: mean of two experiments (TSA: 9); 10-dose, 3-fold serial dilution from 30 μM; read-out: HDAC6 IC50 (μM) ± SD
endpoint: IC50 (µM)
# number only, unit µM dropped from output

Req: Entry `O=C(CCCCCCn1c2ccccc2c2ccccc21)NO` , system Human HDAC6 (Homo sapiens (Human)): what IC50 was measured?
Resp: 0.006

Req: Please state recorded IC50 (tested on Human HDAC6 (Homo sapiens (Human))) of O=C(CCn1c2ccccc2c2ccccc21)NO [Compound 8, 3-Carbazol-9-yl-N-hydroxy-propionamide]
Resp: 1.59

Req: Which IC50 is reported with Human HDAC6 (Homo sapiens (Human)) for this entry: `O=C(CCCCn1c2ccccc2c2ccccc21)NO` ?
Resp: 2.63

----------
target: Human HDAC1 (Homo sapiens (Human), UniProt Q13547)
Sequence (Q13547 whole entry): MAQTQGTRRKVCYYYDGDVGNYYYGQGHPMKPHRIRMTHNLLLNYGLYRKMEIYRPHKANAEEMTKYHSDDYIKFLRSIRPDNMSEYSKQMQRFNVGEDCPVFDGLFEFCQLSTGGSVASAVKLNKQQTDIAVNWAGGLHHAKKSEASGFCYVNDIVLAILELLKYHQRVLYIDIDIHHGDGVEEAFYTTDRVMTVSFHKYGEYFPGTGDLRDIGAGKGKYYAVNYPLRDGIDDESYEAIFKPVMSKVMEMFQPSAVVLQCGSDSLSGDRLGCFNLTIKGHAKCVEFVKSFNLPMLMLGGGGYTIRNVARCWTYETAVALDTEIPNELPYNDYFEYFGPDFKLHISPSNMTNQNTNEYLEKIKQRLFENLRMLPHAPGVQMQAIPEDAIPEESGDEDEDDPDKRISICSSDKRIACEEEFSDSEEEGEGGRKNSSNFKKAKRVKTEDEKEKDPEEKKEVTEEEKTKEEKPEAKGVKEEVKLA
assayMethodText: HDAC1 inhibition assay (fluorogenic p53 peptide substrate)
Assay type: biochemical
measurementContext: read-out: HDAC1 IC50 (μM) ± SD
endpoint: IC50 (µM)
All answers are understood in µM, so give the number only.

Req: Quick check: IC50 of `O=C(CCCCn1c2ccccc2c2ccccc21)NO` ?
Resp: 12.8

Req: Can you share its IC50? I mean this compound: `O=C(CCCCCCn1c2ccccc2c2ccccc21)NO`
Resp: 0.204

Data provenance is patent US8748451B2.
